Recorded binding signal values for a group of sequences are listed next.
# studySystem: OsWRKY34 (Oryza sativa, UniProt Q0JBA9 1-250)
# Sequence (Q0JBA9 entry or part of it): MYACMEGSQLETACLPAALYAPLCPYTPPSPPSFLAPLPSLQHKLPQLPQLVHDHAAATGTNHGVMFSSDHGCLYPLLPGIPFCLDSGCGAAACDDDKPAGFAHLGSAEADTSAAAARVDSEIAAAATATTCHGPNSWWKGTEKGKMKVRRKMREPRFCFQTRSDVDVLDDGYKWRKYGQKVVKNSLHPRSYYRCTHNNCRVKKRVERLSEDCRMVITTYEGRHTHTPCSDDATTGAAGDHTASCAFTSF
# testDescription: protein-binding microarray (RPBM); PBS, 2% BSA, 51.3 ng/ul salmon testes DNA, 50 uM zinc acetate, 200 nM TF, 25 C, 1 h; high values mean tight binding
# appliedConditions: protein: recombinant; tags: N-terminal polyhistidine and DsRed monomer fusion (pET32a); label: CyDye5-dUTP incorporated in the synthesized complementary strand; 3' TTTTT single-stranded linker to array surface; dsDNA, one strand shown
In all, about 68,000 sequences were measured (“fluorescence intensity (a.u.)”: median about 9,100, highest 2% from about 16,000 on). Many of the other results were omitted from the sample, so the highest values are more common in it than they were.

Worked examples follow.
Consider the sequence GTTTTGCACATCCGGTTTTCTCTCTCTCTCTCTCTCCTTTCGGAGTCACCTAGTGCAG and give its recorded binding signal.
16700 fluorescence intensity (a.u.)

Consider the sequence TCTACTTTTCTCCACTCTTTTGCTATAGGGGCTGGGGTGGCGGAGTCACCTAGTGCAG and give its recorded binding signal.
14200 fluorescence intensity (a.u.)

Consider the sequence TCGCCATCGATCGATCGTCTCAACCTCAACCACATTATTGCGGAGTCACCTAGTGCAG and give its recorded binding signal.
8550 fluorescence intensity (a.u.)

Consider the sequence GCGGATGGAATGGCAAGGGAGGAAACTGGTGGGGTGGGAGCGGAGTCACCTAGTGCAG and give its recorded binding signal.
8960 fluorescence intensity (a.u.)

Consider the sequence TTCGGTTTTTCTCTTCATCATTTCTCTTTATTTCTTTCTCCGGAGTCACCTAGTGCAG and give its recorded binding signal.
9290 fluorescence intensity (a.u.)

More entries:
Consider the sequence ATATCTACTCCCGGTTTCTGCTGGATTCCTTCCTTTTTCTCGGAGTCACCTAGTGCAG and give its recorded binding signal.
17500 fluorescence intensity (a.u.)

Consider the sequence GGCATCCTACACTCTAGCTAGCCCACAGTCCGCTGCCGGCCGGAGTCACCTAGTGCAG and give its recorded binding signal.
8790 fluorescence intensity (a.u.)

Consider the sequence ATGACCGGCCACCACCATTGCCACCGGCCGATCTCCTCTTCGGAGTCACCTAGTGCAG and give its recorded binding signal.
9360 fluorescence intensity (a.u.)

Consider the sequence AGAACTAGAAGACCACACGCTGTCTCACTTGTTGCAAAATCGGAGTCACCTAGTGCAG and give its recorded binding signal.
8050 fluorescence intensity (a.u.)

Consider the sequence GAAGCTTCCTCGTCGTCCTTTGTTGGGTTGGGTTGGGTTGCGGAGTCACCTAGTGCAG and give its recorded binding signal.
21000 fluorescence intensity (a.u.)

Origin of the recorded values: paper PMC7819943
